The origin of these recorded values is PubChem BioAssay AID1745844.

test system: rodent lifetime carcinogenesis bioassay, tumor incidence TD50; assay: carcinogenic potency in animals, long-term in vivo studies, CPDB compilation (AID 1745844); settings: mouse; strain ICR/Jcl; females; in drinking water; site: liver; lesion: hemangioendothelial sarcoma; dosed 104 weeks; study length 104 weeks
Calls of active or inactive are those of the source. No rule for the calls is given here.

# SMILES_REPRESENTATION, TD50
records = [
    ("O=S(O)O", "204000 mg/kg/day (inactive)"),
]

###

test system: rodent lifetime carcinogenesis bioassay, tumor incidence TD50; assay: carcinogenic potency in animals, long-term in vivo studies, CPDB compilation (AID 1745844); conditions: rat; strain Sprague-Dawley; males; i.p.; site: peritoneal cavity; lesion: several types; types named in the paper; dosed 77 weeks; study length 100 weeks
MEASUREMENT_KIND: TD50

# SMILES_REPRESENTATION, MEASUREMENT_KIND, OBSERVED
rows = [
    ("O=C[C@H](NC(=O)N(CCCl)N=O)[C@@H](O)[C@H](O)[C@H](O)CO", "TD50", "0.0241 mg/kg/day"),
]

###

tested on: rodent lifetime carcinogenesis bioassay, tumor incidence TD50; assay: carcinogenic potency in animals, long-term in vivo studies, CPDB compilation (AID 1745844); details: rat; strain Wistar; males; inhaled; site: any site (literature study); lesion: several types; types named in the paper; dosed 78 weeks; study length 130 weeks

# SMILES_REPRESENTATION, MEASURED_ON, TD50
records = [
    ("[O]=[Cr](=[O])([OH])[O][Cr](=[O])(=[O])[OH]", "rodent lifetime carcinogenesis bioassay, tumor incidence TD50", "0.875 mg/kg/day"),
]

###

tested on: rodent lifetime carcinogenesis bioassay, tumor incidence TD50; assay: carcinogenic potency in animals, long-term in vivo studies, CPDB compilation (AID 1745844); settings: mouse; strain B6C3F1; males; in feed; site: liver; lesion: hepatocellular carcinoma; dosed 78 weeks; study length 91 weeks
Reported TD50 values are given for each entry in this list.
MEASUREMENT_KIND: TD50

# SMILES_REPRESENTATION, OBSERVED
measured = [
    ("Cc1ccc(Cl)cc1N", "271 mg/kg/day"),
    ("OC(c1ccc(Cl)cc1)(c1ccc(Cl)cc1)C(Cl)(Cl)Cl", "34.8 mg/kg/day"),
]

###

tested on: rodent lifetime carcinogenesis bioassay, tumor incidence TD50; test: carcinogenic potency in animals, long-term in vivo studies, CPDB compilation (AID 1745844); settings: mouse; strain Swiss albino; males; in drinking water; site: blood vessels; lesion: several types; types named in the paper; dosed 115 weeks; study length 115 weeks
MEASUREMENT_KIND: TD50

# SMILES_REPRESENTATION, MEASUREMENT_KIND, OBSERVED
records = [
    ("CC(=O)NNc1ccc(CO)cc1", "TD50", "252 mg/kg/day"),
]

###

tested on: rodent lifetime carcinogenesis bioassay, tumor incidence TD50; assay: carcinogenic potency in animals, long-term in vivo studies, CPDB compilation (AID 1745844); conditions: mouse; strain B6C3F1; males; oral dosing; site: liver; lesion: several types; types named in the paper; dosed 58 weeks; study length 58 weeks
MEASUREMENT_KIND: TD50 (mg/kg/day)

# COMPOUND, MEASURED_ON, MEASUREMENT_KIND, OBSERVED
records = [
    ("ClC1(Cl)C2(Cl)C3(Cl)C4(Cl)C(Cl)(Cl)C5(Cl)C3(Cl)C1(Cl)C5(Cl)C24Cl (stereo unspecified)", "rodent lifetime carcinogenesis bioassay, tumor incidence TD50", "TD50", 1.5),
]
